- Test system: MIWI (PIWIL1) piRISC loaded with Kctd7 piRNA (30 nt);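 further: 1 nM active piRISC with 0.1 nM target library at 33 °C single turnover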
- TEST_SUMMARY: pre-steady-state target cleavage rate (min^-1); higher = faster piRNA-guided slicing of the target
- CONDITION_DETAILS: guide: Kctd7 piRNA 5'p-UGUUAAUCUCUCAGAGAAGGUGACAGUGAU; auxiliary factor: 500 nM mouse GTSF1
Whole data set: some 6,600 sequences, median “pre-steady-state target cleavage rate” near 0.07, cut for the highest 2% near 0.72. Many of the other results were omitted from the sample, so the highest values are more common in it than they were.
Mark satisfied for reported pre-steady-state target cleavage rate of 0.6 or greater; mark not satisfied for anything smaller.

RESIDUE_CODES	CLASS_ASSIGNMENT
UAGUGACUCACCUUCUGUGAGAGAUUAAGA	not satisfied
UAGACUGUCACCUACUCUGAGAGAUUAACA	satisfied
UACACUGUCUGCUUCUCUGAGAGAUUAACA	satisfied
AUGACUGUCACCUUCUCUGAGAGAUUAAGA	not satisfied
UAGACUCUCACCUUCUCUGAGAGAUUUUGA	not satisfied
AUCCCUGUCACCUUCUCUGAGAGAUUAACA	satisfied
AUGACUGUCAGCUUCUCUGAGAGAUUAACA	satisfied
UAGACUGUCAGCUUCUCUGUGAGAUUAACA	not satisfied
UAGUGACAGUCCUUCUCUGAGAGAUUAAACA	not satisfied
AUCACUGUCUGCUUCUCUGAGAGAUUAACA	satisfied
AUCACUGGCACCUUCUCUGAGAGAUUAACA	satisfied
AUCACUGUCAGCUUCUCUGAGAGAUUAACA	satisfied
UUGCACUGUCACCUUCUCUGAGAGAUUAACA	satisfied
UACACCUGUCACCUUCUCUGAGAGAUUAACA	satisfied
AUGCACUGUCACCUUCUCUGAGAGAUUAACA	satisfied
AACACUGUCAGCUUCUCUGAGAGAUUAACA	satisfied
UAGUGACUCACCUUCUCUGACUGAUUAACA	not satisfied
UACCCUGUCACCUUCUCUGAGAGAUUAACA	satisfied
UUCACUGUCUGCUUCUCUGAGAGAUUAACA	satisfied
AUGACUGUCACCUUCUCUGUGAGAUUAACA	not satisfied
UUGACUGUCACCUUCUCUGUGAGAUUAACA	not satisfied
AUGACUGUCACCUACUCUGAGAGAUUAACA	satisfied
UUCACUGGCACCUUCUCUGAGAGAUUAACA	satisfied
AUCACUGUCAGCUUCUCUGUGAGAUUAACA	not satisfied
UACACUGUCACCUUCACUGAGACAUUAACA	not satisfied

----------
- System: MIWI (PIWIL1) piRISC loaded with Kctd7 piRNA (30 nt);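 further: 1 nM active piRISC with 0.1 nM target library at 33 °C single turnover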
- TEST_SUMMARY: pre-steady-state target cleavage rate (min^-1); MIWI and MILI are mouse PIWI proteins and EfPiwi is from a freshwater sponge; tags in brackets are library labels; higher = faster piRNA-guided slicing of the target;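 further: 1 nM active piRISC with 0.1 nM target library at 33 °C single turnover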
- CONDITION_DETAILS: guide: Kctd7 piRNA 5'p-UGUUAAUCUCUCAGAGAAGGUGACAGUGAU; auxiliary factor: 500 nM mouse GTSF1
Over roughly 6,600 sequences, “pre-steady-state target cleavage rate” has its median near 0.07; the highest 2% begin near 0.72. The list comes from a sample in which the highest values are over-represented; it also holds close analogues and randomly drawn sequences.
Mark 1.0 for reported pre-steady-state target cleavage rate of 0.6 or greater; mark 0.0 for anything smaller.

RESIDUE_CODES	CLASS_ASSIGNMENT
UAGUGCGUCACCUUCUCUGAGAGAUUAACA	1.0
UACACUUGUCACCUUCUCUGAGAGAUUAACA	1.0
UUCACUGUCACCUUCUCUGAGCGAUUAACA	0.0
UACACUGGUCACCUUCUCUGAGAGAUUAACA	1.0
UAGUGACUCACCUUCUCUGAGAGAUAUACA	0.0
UACAGUGUCACCUUCUGUGAGAGAUUAACA	1.0
UACACUGUCACCUUGCUCUGAGAGAUUAACA	1.0
UAGUCUGACACCUUGUCUGAGAGAUUAACA	0.0
UUCACUGUCACCUUCUCUGAGAGAAUUAACA	1.0
AUCACUGUCACCUUCUCUGAGAAUUAACA	0.0
AUCACUGUCACCUGUCUCUGAGAGAUUAACA	1.0
UAGUGUGUCACCUUGUCUGAGAGAUUUUGA	0.0
AUCACUGUCACCUUGCUCUGAGAGAUUAACA	1.0
AUCAGACUCACCUUCUCUGAGAGAUUAAGA	0.0
AUCACUGUCACCUUCUCUGAGGGAUUAACA	1.0
UAGUGACUCACCUUCUCUGAGAGAAUAAGA	0.0
AUCACUGUCACCUUCUCUGAGAGUAUUUGA	0.0
AUCACUUUCACCUUCUCUGAGAGAUUAACA	1.0
UAGUGAGUCAGCUUCUCUGAGAGAAUAACA	0.0
AUCACUGUCACCUUCUCUGAGAGAAUUAACA	1.0
UACACUGACACCUUCUCUGAGAGAUUUUGA	0.0
AUCACUUGUCACCUUCUCUGAGAGAUUAACA	1.0
UAGACUGUCACCUUCUCUGAGGGAUUAACA	1.0
UAGUGACUCUCCUUCUCUGAGAGUUUAACA	0.0
UUCACUGGUCACCUUCUCUGAGAGAUUAACA	1.0
UAGUGACAGUGGAAGUCUGAGACAUAAACA	0.0
UUCACUGUCACCUUCUCUGAGGGAUUAACA	0.0
